- target system: T1, TNFR1 (Homo sapiens, UniProt P19438)
- T1 chain: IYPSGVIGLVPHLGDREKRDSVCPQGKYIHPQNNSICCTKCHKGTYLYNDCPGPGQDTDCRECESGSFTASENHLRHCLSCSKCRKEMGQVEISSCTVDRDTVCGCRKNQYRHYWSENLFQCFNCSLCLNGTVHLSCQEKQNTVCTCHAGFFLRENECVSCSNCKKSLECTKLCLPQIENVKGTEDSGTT
- protocol details: yeast display SC50
Each record here notes measured apparent Kd (screen).
Provide only the numeric value, understood in nM.

Study these solved cases before continuing.
| binder | quantity measured | test value |
| --- | --- | --- |
| F39A (designed binder) SMEEEVEKAAKEYEKKKKEAIEKHLEKLKAKDKEAAERALKELEEAAKEYAKDEAKTMSEEEAKRRAKKYKEKVLLSELSEEEQKEIKEAEEKLVRTILKYVEEAAK | apparent Kd (screen) | 3 |
| D32E (designed binder) SMEEEVEKAAKEYEKKKKEAIEKHLEKLKAKEKEAAERFLKELEEAAKEYAKDEAKTMSEEEAKRRAKKYKEKVLLSELSEEEQKEIKEAEEKLVRTILKYVEEAAK | apparent Kd (screen) | 0.956 |
| E7N (designed binder) SMEEEVNKAAKEYEKKKKEAIEKHLEKLKAKDKEAAERFLKELEEAAKEYAKDEAKTMSEEEAKRRAKKYKEKVLLSELSEEEQKEIKEAEEKLVRTILKYVEEAAK | apparent Kd (screen) | 1.27 |
| K29N (designed binder) SMEEEVEKAAKEYEKKKKEAIEKHLEKLNAKDKEAAERFLKELEEAAKEYAKDEAKTMSEEEAKRRAKKYKEKVLLSELSEEEQKEIKEAEEKLVRTILKYVEEAAK | apparent Kd (screen) | 0.539 |
| T57G (designed binder) SMEEEVEKAAKEYEKKKKEAIEKHLEKLKAKDKEAAERFLKELEEAAKEYAKDEAKGMSEEEAKRRAKKYKEKVLLSELSEEEQKEIKEAEEKLVRTILKYVEEAAK | apparent Kd (screen) | 10.4 |
| R96S (designed binder) SMEEEVEKAAKEYEKKKKEAIEKHLEKLKAKDKEAAERFLKELEEAAKEYAKDEAKTMSEEEAKRRAKKYKEKVLLSELSEEEQKEIKEAEEKLVSTILKYVEEAAK | apparent Kd (screen) | 2.48 |
| K88Y (designed binder) SMEEEVEKAAKEYEKKKKEAIEKHLEKLKAKDKEAAERFLKELEEAAKEYAKDEAKTMSEEEAKRRAKKYKEKVLLSELSEEEQKEIYEAEEKLVRTILKYVEEAAK | apparent Kd (screen) | 0.49 |

Okay, now this binder:
Quick note, apparent Kd (screen) for A90N (designed binder) SMEEEVEKAAKEYEKKKKEAIEKHLEKLKAKDKEAAERFLKELEEAAKEYAKDEAKTMSEEEAKRRAKKYKEKVLLSELSEEEQKEIKENEEKLVRTILKYVEEAAK landed at 0.446
